# Tested on: Alopecurus myosuroides (ALOMY)
# assay-method-text: Example B post-emergence herbicidal test, ALOMY
# Assay type: in vivo
# experimental-context: Alopecurus myosuroides, 312 h, rate 250 g/ha, evaluated after 13 days, scale 0-100, read-out: Post-emergence activity ALOMY (100=total damage to plant; 0=no damage to plant)
recorded-endpoint: pest or weed control at 250 g/ha (%)
The reply should contain only the number, in %.

Look up pest or weed control at 250 g/ha of COCC(=O)N1CCC(CC2CC(=O)C(c3c(C)cc(C)cc3C)C2=O)CC1 (centres unmarked) and report it.
90

Look up pest or weed control at 250 g/ha of Cc1cc(C)c(C2=C(OS(C)(=O)=O)C/C(=C\C3CCN(S(C)(=O)=O)C3)C2=O)c(C)c1 (centres unmarked) and report it.
90

Look up pest or weed control at 250 g/ha of Cc1cc(C)c(C2C(=O)CC(CC3CCN(C(=O)OCC(Cl)(Cl)Cl)CC3)C2=O)c(C)c1 (centres unmarked) and report it.
40

Look up pest or weed control at 250 g/ha of Cc1cc(C)c(C2C(=O)CC(CC3CCN(C(=O)Cc4ccccc4)CC3)C2=O)c(C)c1 (centres unmarked) and report it.
90

Look up pest or weed control at 250 g/ha of Cc1cc(C)c(C2C(=O)C(C)C(CC3CCOC3)C2=O)c(C)c1 (centres unmarked) and report it.
70

Look up pest or weed control at 250 g/ha of C=CCOC(=O)N1CCC(CC2CC(=O)C(c3c(C)cc(C)cc3C)C2=O)CC1 (centres unmarked) and report it.
40

Look up pest or weed control at 250 g/ha of CCSC(=O)OC1=C(c2c(C)cc(C)cc2C)C(=O)C(CC2CCOC2)C1 (centres unmarked) and report it.
100

Look up pest or weed control at 250 g/ha of Cc1cc(C)c(C2C(=O)CC(CC3CCOC3C)C2=O)c(C)c1 (centres unmarked) and report it.
90

Look up pest or weed control at 250 g/ha of Cc1cc(C)c(C2=C(OC(=O)c3cccs3)CC(CC3CCN(C(=O)c4cccs4)C3)C2=O)c(C)c1 (centres unmarked) and report it.
90

Look up pest or weed control at 250 g/ha of COC1=C(c2c(C)cc(C)cc2C)C(=O)C/C1=C\C1CCOCC1 and report it.
0

Look up pest or weed control at 250 g/ha of Cc1cc(-c2ccccc2)cc(C)c1C1C(=O)CC(CC2CCOCC2)C1=O (centres unmarked) and report it.
90

Look up pest or weed control at 250 g/ha of Cc1cc(C)c(C2C(=O)C/C(=C\C3CCSCC3)C2=O)c(C)c1 (centres unmarked) and report it.
60

Look up pest or weed control at 250 g/ha of CCc1cc(C)cc(C)c1C1C(=O)C/C(=C\C2CCOC2)C1=O (centres unmarked) and report it.
90

Look up pest or weed control at 250 g/ha of Cc1cc(C)c(C2=C(OC(=O)c3ccccc3)CC(CC3CCOCC3)C2=O)c(C)c1 (centres unmarked) and report it.
100

Look up pest or weed control at 250 g/ha of Cc1cc(C)c(C2C(=O)CC(CC3CCOC(C)(C)C3)C2=O)c(C)c1 (centres unmarked) and report it.
90

Look up pest or weed control at 250 g/ha of Cc1cc(C)c(C2C(=O)C(Cc3ccccc3)C(CC3CCOC3)C2=O)c(C)c1 (centres unmarked) and report it.
30

Look up pest or weed control at 250 g/ha of Cc1cc(-c2ccc(F)c(Cl)c2)cc(C)c1C1C(=O)C/C(=C\C2CCOCC2)C1=O (centres unmarked) and report it.
90

Hello, the source for this data is patent US9096560B2, in case you need it.
